System: Chikungunya virus
protocol_text: Antiviral activity against Chikungunya virus 899 infected in African green monkey Vero cells by MTS assay
Format: functional, organism-based
condition_set: Chikungunya virus, 899, Vero
pEC50: −log10 of the molar value.
Measured pEC50 of individual entries
parameter_measured: pEC50

• O=c1cc(CSc2nc3ccccc3c(=O)[nH]2)c2ccc(OS(=O)(=O)c3ccccc3[N+](=O)[O-])cc2o1 = 4.76
• Cc1ccc(S(=O)(=O)Oc2ccc3c(CSc4nc5ccccc5c(=O)[nH]4)cc(=O)oc3c2)cc1 = 4.99
• Cc1ccc(S(=O)(=O)Oc2ccc3c(CSc4nc5ccc(C)cc5c(=O)[nH]4)cc(=O)oc3c2)cc1 = 4.58
• O=c1ccnc(SCc2cc(=O)oc3cc(OCc4ccc([N+](=O)[O-])cc4)ccc23)[nH]1 = 5.34
• O=C1CCN=C(SCc2cc(=O)oc3cc(OS(=O)(=O)c4ccccc4)ccc23)N1 = 4.24
• O=c1cc(CSc2nc3ccccc3c(=O)[nH]2)c2ccc(OS(=O)(=O)c3ccc([N+](=O)[O-])cc3)cc2o1 = 4.26
• Cc1ccc2nc(SCc3cc(=O)oc4cc(OS(=O)(=O)c5ccccc5)ccc34)[nH]c(=O)c2c1 = 4.24
• Cc1ccc2nc(SCc3cc(=O)oc4cc(OS(=O)(=O)c5ccc(F)cc5)ccc34)[nH]c(=O)c2c1 = 3.94
• O=C1CCN=C(SCc2cc(=O)oc3cc(OS(=O)(=O)c4ccc(F)cc4)ccc23)N1 = 3.89
• O=c1cc(CSc2nc3ccccc3c(=O)[nH]2)c2ccc(OS(=O)(=O)c3ccc(F)cc3)cc2o1 = 4.74
• O=c1cc(CSc2nc(O)c3ccccc3n2)c2ccc(O)cc2o1 = 3.72
• O=C1CCN=C(SCc2cc(=O)oc3cc(OS(=O)(=O)c4ccccc4[N+](=O)[O-])ccc23)N1 = 4.89

====

protocol_text: Cytotoxicity against human Huh7.5 cells in presence of ATP by Celltiter-Glo assay
Type: cell-based
# CC50 per record follows
parameter_measured: CC50

• COc1ccc2cc3[n+](cc2c1OC)CCc1cc2c(cc1-3)OCO2 = > 100 µM
• CC1=C(/C=C/C(C)=C/C=C/C(C)=C/C(=O)Nc2ccc(O)cc2)C(C)(C)CCC1 [FENRETINIDE] = 15.6 µM
• CC[C@H](C)[C@H]1O[C@]2(CC[C@@H]1C)C[C@@H]1C[C@@H](C/C=C(\C)[C@@H](O[C@H]3C[C@H](OC)[C@@H](O[C@H]4C[C@H](OC)[C@@H](O)[C@H](C)O4)[C@H](C)O3)[C@@H](C)/C=C/C=C3\CO[C@]4(O)[C@H](O)C(C)=C[C@@H](C(=O)O1)[C@]34O)O2 = 8 µM

====

pEC50 by entry:
Test system: Chikungunya virus
protocol_text: Antiviral activity against Chikungunya virus 899 infected in African green monkey Vero A cells assessed as inhibition of virus-induced cytopathogenic effect measured on day 5 post infection by MTS/PMS based microscopic analysis
Type: functional, organism-based
condition_set: Chikungunya virus, 899, Vero, 120 h
pEC50: −log10 of the molar value.
parameter_measured: pEC50

- CCCCCCCC(=O)O[C@H]1/C(=C/C(=O)OC)C[C@H]2C[C@H](COC)OC(=O)CCOc3ccccc3C(=O)OCC(C)(C)[C@]1(O)O2: 5.12
- CCCCCCCC(=O)O[C@H]1/C(=C/C(=O)OC)C[C@H]2C[C@H](CC(=O)OC)OC(=O)CCOc3ccc(-c4c(OC)cccc4OC)cc3C(=O)OCC(C)(C)[C@]1(O)O2: 5.40
- CCCCCCCC(=O)O[C@H]1/C(=C/C(=O)OC)C[C@H]2C[C@H](CC(=O)OC)OC(=O)CCOc3ccccc3C(=O)OCC(C)(C)[C@]1(O)O2: 5.10

====

System: Chikungunya virus
protocol_text: Antiviral activity against Chikungunya virus CNR20235 infected in buffalo green monkey BGM cells after 24 hrs by luciferase reporter gene assay
Assay type: functional, organism-based
pEC50: −log10 of the molar value.
parameter_measured: pEC50

• CC(=O)O[C@@]12C[C@@H](C)[C@@]3(O)[C@@H](C=C(CO)C[C@]4(O)C(=O)C(C)=C[C@@H]34)[C@@H]1C2(C)C = 6.30

====

protocol_text: Cytotoxicity against African green monkey Vero A cells assessed as reduction in cell viability measured on day 5 post infection by MTS/PMS based microscopic analysis
condition_set: chlorocebus sabaeus
parameter_measured: CC50 at 5 days

* CCCCCCCC(=O)O[C@H]1/C(=C/C(=O)OC)C[C@H]2C[C@H](CC(=O)OC)OC(=O)CCOc3ccccc3C(=O)OCC(C)(C)[C@]1(O)O2 | > 50 µM
* CCCCCCCC(=O)O[C@H]1/C(=C/C(=O)OC)C[C@H]2C[C@H](COC)OC(=O)CCOc3ccccc3C(=O)OCC(C)(C)[C@]1(O)O2 | > 50 µM
* CCCCCCCC(=O)O[C@H]1/C(=C/C(=O)OC)C[C@H]2C[C@H](CC(=O)OC)OC(=O)CCOc3ccc(-c4c(OC)cccc4OC)cc3C(=O)OCC(C)(C)[C@]1(O)O2 | > 50 µM

====

protocol_text: Cytotoxicity against BHK cells assessed as reduction in cell viability after 48 hrs in presence of ATP by Celltiter-Glo luminescent assay
Format: cell-based, Mesocricetus auratus
condition_set: hamster
parameter_measured: CC50 at 48 h (µM)

• CN1CCC(CN2c3ccccc3Sc3ccccc32)C1 (stereo not given) = 63.8
• CCN(CC)C(C)CN1c2ccccc2Sc2ccccc21 (stereo not given) = 167
• CCSc1ccc2c(c1)N(CCCN1CCN(C)CC1)c1ccccc1S2 = 83.1
• CN(C)CCCN1c2ccccc2Sc2ccc(Cl)cc21 = 67.3
• OCCN1CCN(CCCN2c3ccccc3Sc3ccc(Cl)cc32)CC1 = 155

====

Overview of recorded log10(CC50) for various compounds
protocol_text: Cytotoxicity against African green monkey Vero cells assessed as reduction in cell viability measured on day 6 to 7 post infection by MTS dye-based microscopic analysis
condition_set: chlorocebus sabaeus
parameter_measured: log10(CC50) (log10 of the value in µM)

• C=C(C)[C@@]1(O)[C@@H]2OC3(c4ccccc4)O[C@H]1[C@@H](C)[C@]1(O3)C3=CC(=C(Cl)Cl)[C@H](OC(=O)c4ccccc4)[C@@]3(O)[C@H](OC(C)=O)[C@@]3(COC(C)=O)O[C@H]3[C@@H]21 = 1.54
• CC1CCCCCCCC(C)C(=O)O[C@H]2/C(=C/Cl)C=C3[C@]45OC6(c7ccccc7)O[C@H]([C@@H]4[C@@H]4O[C@]4(CO)C[C@@]32O)[C@@](O)([C@@H](O6)[C@H]5C)C(C)(O)C1 (stereo partly specified) = 0.72
• C=C(C)[C@@]1(Oc2ccccc2)[C@@H]2OC3(c4ccccc4)O[C@H]1[C@@H](C)[C@]1(O3)C3=CC(=C(Cl)Cl)[C@H](c4ccccc4)[C@@]3(O)C[C@@]3(C)O[C@H]3[C@@H]21 = 1.36
• C=C(C)[C@@]1(Oc2ccccc2)[C@@H]2OC3(c4ccccc4)O[C@H]1[C@@H](C)[C@]1(O3)C3=CC(=C(Cl)Cl)C[C@@]3(O)C[C@@]3(Cc4ccccc4)O[C@H]3[C@@H]21 = 1.97
• CC1CCCCCCCC(C)C(=O)O[C@H]2/C(=C/Cl)C=C3[C@]45OC6(c7ccccc7)O[C@H]([C@@H]4[C@@H]4O[C@]4(CO)C[C@@]32O)[C@@](O)([C@@H](O6)[C@H]5C)C(O)(COC(=O)c2ccccc2)C1 (stereo partly specified) = 1.02
• CC1CCCCCCCC(C)C(=O)O[C@H]2/C(=C/Cl)C=C3[C@]45OC6(c7ccccc7)O[C@H]([C@@H]4[C@@H]4O[C@]4(CO)C[C@@]32O)[C@@](O)([C@@H](O6)[C@H]5C)C(O)(COC(=O)c2ccccc2O)C1 (stereo partly specified) = 0.66

====

Listed below: selectivity ratio values for each entry.
protocol_text: Selectivity index, ratio of CC50 for African green monkey Vero cells to IC50 for Chikungunya virus KC969207
Assay type: toxicity
condition_set: read-out: Ratio CC50/IC50
parameter_measured: selectivity ratio

• CCCCOC(=O)c1ccccc1C(=O)O = 136
• NC(=O)c1ncn([C@@H]2O[C@H](CO)[C@@H](O)[C@H]2O)n1 [RIBAVIRIN] = 529
• CC(C)CCCC(C)CCCC(C)CCCC(C)CCO (stereo not drawn) = 156

====

protocol_text: Cytotoxicity against BHK21 cells assessed as reduction in cell viability after 16 hrs by CCK-8 assay
Type: cell-based, Mesocricetus auratus
condition_set: hamster, BHK-21 cells
parameter_measured: CC50 at 16 h (µM)

• CC(=O)Oc1ccccc1C(=O)Nc1ncc([N+](=O)[O-])s1 [NITAZOXANIDE] = 25

====

# key: entry, value: CC50 at 96 h
protocol_text: Cytotoxicity against African green monkey Vero cells assessed as reduction in cell viability after 4 days by MTT assay
Type: cell-based
condition_set: chlorocebus sabaeus
parameter_measured: CC50 at 96 h (µM)

- CC(C)CCCC(C)CCCC(C)CCCC(C)CCO (stereo not drawn): 259
- CCCCOC(=O)c1ccccc1C(=O)O: 340
- NC(=O)c1ncn([C@@H]2O[C@H](CO)[C@@H](O)[C@H]2O)n1: 1620
